Values compiled from ChEMBL document CHEMBL1147410.

Entries annotated with measured Ki
ASSAY EXPLANATION: Binding affinity for rat imidazoline I2 receptor from crude P2 membranes
MEASURED ATTRIBUTE: Ki

c1ccc2c3c([nH]c2c1)C1=NCCN1CC3 = 7.3 nM
C(=C\c1ccccc1)/C1=NCCN1 = 2 nM
c1ccc2c3c([nH]c2c1)CNCC3 = 9.4 nM
c1ccc2c(c1)CC(C1=NCCN1)O2 (stereo unspecified) = ~50 nM
c1coc(C2=NCCN2)c1 = 2340 nM
c1ccc2oc(C3=NCCN3)cc2c1 = < 10 nM

---

Entries annotated with measured Ki
ASSAY EXPLANATION: Binding affinity for rat imidazoline I2 receptor from crude P2 membranes; 1-5
MEASURED ATTRIBUTE: Ki (nM)

c1ccc(OCC2=NCCN2)cc1 = 5
c1ccc(CCC2=NCCN2)cc1 [PHENYZOLINE] = 5
